Origin of measurements: ChEMBL document CHEMBL1961873

target: Serine/threonine-protein kinase MARK1 (Homo sapiens); conditions: at 1 µM;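 further: reported values are mean percent inhibition of MARK1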
Classification field: enter y for inhibition values not below 6%, n for values below it.

input: Is reported inhibition greater than or equal to 6% here: `COc1cc2ncn(-c3cc(O[C@@H](C)c4ccccc4Cl)c(C(N)=O)s3)c2cc1OC`
output: y

input: Tell me whether inhibition is at least 6% here: CC1=C(C(=O)Nc2ccc3[nH]ncc3c2)C(c2ccc(F)cc2)NC(=O)N1 (configuration not stated)
output: y

input: Check the entry `Cc1nnc(-c2ccc(C)c(-c3ccc(C(=O)Nc4cccc(C#N)c4)cc3)c2)o1` : does inhibition equal or exceed 6%?
output: n

input: hey, is inhibition for this one >= 6%? `NC(=O)c1cccc(Nc2nccc(Nc3cccc4[nH]ncc34)n2)c1`
output: y

input: Kindly determine if inhibition recorded for `Cn1cc(C=C2C(=O)Nc3cccnc32)c2ccccc21` is above or exactly 6%.
output: y

input: Please indicate if the recorded inhibition for `COc1ccc(-c2coc3ncnc(N)c23)cc1` meets or exceeds 6%.
output: n
